# System: VZV strain Ellen
# Method Summary: VZV Antiviral (ELISA) Assay
# Type: cell-based, varicella-zoster virus
# Condition Notes: Human alphaherpesvirus 3, Fibroblast, read-out: % inhibition 10 ug/ml VZV, 10 ug/ml; human foreskin fibroblast cells
Think of 20% as a floor: if inhibition at 10 µg/mL stands on it or above, it is Satisfied; beneath it, Not satisfied.

[ask] Reported inhibition at 10 µg/mL at or above 20%? `COc1ccc(NC(=S)Nc2ccc(NC(C)=O)cc2)c(OC)c1`
[reply] Satisfied

[ask] Could you please find out whether `CC(=O)Nc1ccc(NC(=S)Nc2ccc(OC3CCCCC3)c(Cl)c2)cc1` has inhibition at 10 µg/mL that meets 20% or exceeds it?
[reply] Satisfied

[ask] Identify whether the reported inhibition at 10 µg/mL of the following compound is 20% or greater: `CC(=O)Nc1ccc(NC(=S)Nc2ccc(Cl)c(Cl)c2)cc1`
[reply] Not satisfied

[ask] In plain terms: is recorded inhibition at 10 µg/mL at least 20% for `CC(=O)Nc1ccc(NC(=S)Nc2cc(Cl)c(Cl)c(Cl)c2)cc1` ?
[reply] Satisfied

* * *

# System: HSV-1
# Method Summary: HSV Antiviral (ELISA) Assay
# Assay type: cell-based, herpes simplex virus type 1
# Condition Notes: Human alphaherpesvirus 1, Vero, Vero cells, HSV-1; read-out: IC50 Ug/ml HSV
Quick rule for you: IC50 under 20 µg/mL gets yes, anything else gets no.

[ask] # check: IC50 < 20 µg/mL for `CCOc1cc(OC)c(Cl)cc1NC(=S)Nc1ccc(NC(C)=O)cc1`
[reply] yes

[ask] Does `CCCCOc1ccc(NC(=S)Nc2ccc(NC(C)=O)cc2)cc1Cl` have IC50 strictly under 20 µg/mL?
[reply] yes

[ask] Lab note: IC50 threshold 20 µg/mL. Does this compound come in strictly under it? `CC(=O)Nc1ccc(NC(=S)Nc2ccc(N(C)CCCN(C)C)c(Cl)c2)cc1`
[reply] no

[ask] Does `CC(=O)Nc1ccc(NC(=S)Nc2ccc(N3CCOCC3)c(Cl)c2)cc1` have IC50 strictly under 20 µg/mL?
[reply] no

[ask] I'd appreciate it if you could check whether `COc1cc(OCCCC#N)c(Cl)cc1NC(=S)Nc1ccc(NC(C)=O)cc1` has IC50 smaller than 20 µg/mL.
[reply] no

[ask] hey, is IC50 for `CC(=O)Nc1ccc(NC(=S)Nc2ccc(Oc3cc(Cl)c(Cl)cc3S(=O)(=O)O)c(Cl)c2)cc1` lower than 20 µg/mL or not?
[reply] no

[ask] Is the reported IC50 for `COc1cc(OC)c(C(F)(F)F)cc1NC(=S)Nc1ccc(NC(C)=O)cc1` strictly below 20 µg/mL?
[reply] yes

[ask] I'd appreciate it if you could check whether `CC(=O)Nc1ccc(NC(=S)Nc2ccc(N(CCO)CCO)c(Cl)c2)cc1` has IC50 smaller than 20 µg/mL.
[reply] no

* * *

# System: HSV-1
# Method Summary: HSV Antiviral (ELISA) Assay
# Type: cell-based, herpes simplex virus type 1
# Condition Notes: Human alphaherpesvirus 1, Vero, Vero cells, HSV-1; read-out: IC50 Ug/ml HSV
Exercise: for every item that follows, state its recorded IC50.
Hi! Could you send only the number? It should be in µg/mL, unit omitted.

[ask] Provide IC50, system HSV-1, entry `COc1cc(OC)c(NC(=S)Nc2cc(O)c(NC(C)=O)cc2Cl)cc1Cl`
[reply] 7

[ask] // fetch IC50 for `COc1cc(OCC#N)c(NC(=S)Nc2ccc(NC(C)=O)cc2)cc1Cl` ; system: HSV-1
[reply] 30

* * *

# Test system: VZV strain Ellen
# Method Summary: VZV Antiviral (ELISA) Assay
# Assay type: cell-based, varicella-zoster virus
# Condition Notes: Human alphaherpesvirus 3, Fibroblast, read-out: % inhibition 10 ug/ml VZV, 10 ug/ml; human foreskin fibroblast cells
Assign class by inhibition at 10 µg/mL: not lower than 20% means Yes; lower than 20% means No.

[ask] Please indicate if the recorded inhibition at 10 µg/mL for CC(=O)Nc1ccc(NC(=S)Nc2ccc(N(C)CCCN(C)C)c(Cl)c2)cc1 [Example 298] meets or exceeds 20%.
[reply] No

[ask] Assess whether reported inhibition at 10 µg/mL for CC(=O)Nc1ccc(NC(=S)Nc2ccc(NS(C)(=O)=O)c(Cl)c2)cc1 [Example 369] sits at 20% or higher.
[reply] No

[ask] Does the reported inhibition at 10 µg/mL for CC(=O)Nc1ccc(NC(=S)Nc2ccc(N(C)CC(C)C)c(Cl)c2)cc1 [Example 907] fall at or above the 20% mark?
[reply] No

[ask] Is reported inhibition at 10 µg/mL greater than or equal to 20% here: COc1cc(OC)c(C(F)(F)F)cc1NC(=S)Nc1ccc(NC(C)=O)cc1 [Example 131]
[reply] Yes

[ask] In plain terms: is recorded inhibition at 10 µg/mL at least 20% for CC(=O)Nc1ccc(NC(=S)Nc2ccc(OCc3ccccc3)c(Cl)c2)cc1 [Example 269] ?
[reply] Yes

[ask] Record CC(=O)Nc1ccc(NC(=S)Nc2cc(Cl)c(OCc3ccccc3)c(Cl)c2)cc1 [Example 178] ; criterion: inhibition at 10 µg/mL no lower than 20%. Met?
[reply] Yes

[ask] Could you tell me if the measured inhibition at 10 µg/mL of CC(=O)Nc1ccc(NC(=S)Nc2ccc(N3CCCCC3)c(Cl)c2)cc1 [Example 239] reaches 20% or more?
[reply] Yes

[ask] Assess whether reported inhibition at 10 µg/mL for COc1c(I)cc(NC(=S)Nc2ccc(NC(C)=O)cc2)c(OC)c1I [Example 893] sits at 20% or higher.
[reply] Yes

[ask] Assess whether reported inhibition at 10 µg/mL for CC(=O)Nc1ccc(NC(=S)Nc2ccc(C(C)O)c(Cl)c2)cc1 (stereo not drawn) [Example 862] sits at 20% or higher.
[reply] No

* * *

# Tested on: VZV strain Ellen
# Method Summary: VZV Antiviral (ELISA) Assay
# Assay type: cell-based, varicella-zoster virus
# Condition Notes: Human alphaherpesvirus 3, Fibroblast, read-out: % inhibition 10 ug/ml VZV, 10 ug/ml; human foreskin fibroblast cells
Measure Name: inhibition at 10 µg/mL (%)
Reply with just the number (in %).

[ask] Supply recorded inhibition at 10 µg/mL for CCOc1c(Cl)cc(NC(=S)Nc2ccc(NC(C)=O)cc2)cc1Cl [Example 176] here.
[reply] 24

[ask] Let me know recorded inhibition at 10 µg/mL for CC(=O)Nc1ccc(NC(=S)Nc2ccc(N(C)C3CCCC3)c(Cl)c2)cc1 [Example 844] , thanks.
[reply] 32

[ask] Quickly give me recorded inhibition at 10 µg/mL for CC(=O)Nc1ccc(NC(=S)Nc2ccc(N(C)C3CCN(C)CC3)c(Cl)c2)cc1 [Example 841]
[reply] 30

[ask] Report measured inhibition at 10 µg/mL; entry is CC(=O)Nc1ccc(NC(=S)Nc2ccc(C)c(Cl)c2)cc1 [Example 889]
[reply] 1

[ask] Provide inhibition at 10 µg/mL value for the following molecule: COc1cc(OCc2ccccc2)c(NC(=S)Nc2ccc(NC(C)=O)cc2)cc1Cl [Example 835]
[reply] 38

[ask] # return recorded inhibition at 10 µg/mL for input CC(=O)Nc1ccc(NC(=S)Nc2cc(Cl)c(OCC(N)=O)c(Cl)c2)cc1 [Example 882]
[reply] 15

[ask] Entry COc1cc(OC)c(NC(=S)Nc2ccc(NC(C)=O)c(Cl)c2)cc1Cl [Example 275] needs its inhibition at 10 µg/mL filled in; supply it.
[reply] 32

[ask] Tell me measured inhibition at 10 µg/mL for COc1cc(N2CCCCC2)c(NC(=S)Nc2ccc(NC(C)=O)cc2)cc1Cl [Example 229] please.
[reply] 35

[ask] Please indicate inhibition at 10 µg/mL recorded for CC(=O)Nc1ccc(NC(=S)Nc2ccccc2)cc1 [Example 814]
[reply] 15

[ask] Dear colleague, please send me the reported inhibition at 10 µg/mL for COC(=O)COc1cc(OC)c(NC(=S)Nc2ccc(NC(C)=O)cc2)cc1Cl [Example 217] when you can.
[reply] 10

[ask] Write down inhibition at 10 µg/mL measured for item CCCN(CCC)c1ccc(NC(=S)Nc2ccc(NC(C)=O)cc2)cc1Cl [Example 272]
[reply] 50

[ask] Please report the measured inhibition at 10 µg/mL for CC(=O)Nc1ccc(NC(=S)Nc2ccc(C(F)(F)F)c(Cl)c2)cc1 [Example 908]
[reply] 36

[ask] Give the reported inhibition at 10 µg/mL for this molecule. CC(=O)Nc1ccc(NC(=S)Nc2ccc(NCCN(C)C)c(Cl)c2)cc1 [Example 316]
[reply] 56

[ask] Please report the measured inhibition at 10 µg/mL for CCOc1cc(OC)c(NC(=S)Nc2ccc(NC(C)=O)cc2)cc1Cl [Example 832]
[reply] 15

[ask] Please supply the value of reported inhibition at 10 µg/mL for the item CC(=O)Nc1ccc(NC(=S)Nc2cccc(Cl)c2)cc1 [Example 816]
[reply] 30

[ask] Provide one value: measured inhibition at 10 µg/mL of CC(=O)Nc1ccc(NC(=S)Nc2ccc([N+](=O)[O-])cc2)cc1 [Example 879]
[reply] 16

[ask] Check the records and state inhibition at 10 µg/mL for CCOc1ccc(NC(=S)Nc2ccc(NC(C)=O)cc2)cc1Cl [Example 268]
[reply] 14

[ask] Assign inhibition at 10 µg/mL to the following record: COc1cc(OC)c(NC(=S)Nc2ccc(NC(C)=O)cc2)cc1F [Example 198]
[reply] 36
